# target_desc: CYP2C9 (Homo sapiens)
# Construct: tissue Eurofins Cerep (assay provider); host or cells: human liver microsomes
# Sequence (P11712 whole entry): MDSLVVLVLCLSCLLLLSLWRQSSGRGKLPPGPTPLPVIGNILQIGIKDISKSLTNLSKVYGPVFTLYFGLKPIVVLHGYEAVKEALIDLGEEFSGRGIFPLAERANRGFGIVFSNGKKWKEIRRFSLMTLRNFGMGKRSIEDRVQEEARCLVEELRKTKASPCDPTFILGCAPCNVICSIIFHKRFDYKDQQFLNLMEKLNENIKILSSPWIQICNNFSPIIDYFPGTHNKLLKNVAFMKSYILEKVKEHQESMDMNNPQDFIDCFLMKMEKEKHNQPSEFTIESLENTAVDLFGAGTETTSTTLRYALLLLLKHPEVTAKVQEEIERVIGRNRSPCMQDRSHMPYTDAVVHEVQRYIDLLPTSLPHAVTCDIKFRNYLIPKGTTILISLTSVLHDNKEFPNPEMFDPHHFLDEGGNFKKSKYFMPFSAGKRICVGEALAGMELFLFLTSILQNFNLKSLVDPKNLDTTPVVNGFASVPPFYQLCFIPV
# procedure_text: CYP inhibition in human liver microsomes
# Type: in vitro ADME
# recorded_conditions: n = 2, read-out: CYP inhibition 2C9
Measured inhibition at 10 µM accompanies every entry in the list below.
Dear colleague, please return just the value in %, with no unit written.

compound | reported_measurement
CN(CCC(=O)NCc1ccc(C#N)cc1)Cc1ccccc1 [Compound 6] | 10

Proceeding to the next compound to report its inhibition at 10 µM.
Prompt: Quick one: inhibition at 10 µM of CN(CCC(=O)NCc1cccc(Cl)c1)Cc1ccccc1 [Compound 2] ?
Completion: 13.1

Values from paper PMC12430443
